B1: Zinc finger homeobox protein 3, residues 2147 to 2202; numbered along this chain, Q15911 (parent)
chain: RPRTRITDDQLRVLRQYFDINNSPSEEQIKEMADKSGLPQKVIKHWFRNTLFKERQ

- Variants of: B1
- ASSAY OVERVIEW: abundance fitness (aPCA) (normalised: wild type 0, dead -1); higher = more abundant; growth selection in yeast, the domain comes from the species named
- CONDITION NOTES: Homo sapiens
Labels assigned by abundance fitness range: lower segment = under -0.2, middle segment = from -0.2 up to -0.06, upper segment = -0.06 and over

# RESIDUES, LABEL
rows = [
    ("RPRTRITDDQLRVLRQYFDINNSPSEEQIKEMADKWGLPQKVIKHWFRNTLFKERQ [S36W]", "middle segment"),
    ("RPRTRITTDQLRVLRQYFDINNSPSEEQIKEMADKSGLPQKVIKHWFRNTLFKERQ [D8T]", "upper segment"),
    ("NPRTRITDDQLRVLRQYFDINNSPSEEQIKEMADKSGLPQKVIKHWFRNTLFKERQ [R1N]", "upper segment"),
    ("RPRTRITDDQLRVLRQYFDINNSPSEEQIKEMADKSGLPQKVIKHWKRNTLFKERQ [F47K]", "lower segment"),
    ("CPRTRITDDQLRVLRQYFDINNSPSEEQIKEMADKSGLPQKVIKHWFRNTLFKERQ [R1C]", "middle segment"),
    ("GPRTRITDDQLRVLRQYFDINNSPSEEQIKEMADKSGLPQKVIKHWFRNTLFKERQ [R1G]", "lower segment"),
    ("RPRTRITDDQLRVLRQYFDINNSPSEEQIKEMADKSGLPQKTIKHWFRNTLFKERQ [V42T]", "upper segment"),
    ("RPRTRITDDQLRVLRQYFDINNSPSEEQIKEMADKSGLPQKVIKHWFRNTWFKERQ [L51W]", "lower segment"),
    ("RPRTRITDDQLRVLRQYFDINNSPSEEQIKEMADKSGLPQKVIKHWFRNTLFKMRQ [E54M]", "middle segment"),
    ("RPRTRITDDQLRVLRQYFDINNSPSEEQIKEMADKSGLPQKVIKHWFRNTEFKERQ [L51E]", "middle segment"),
    ("RPRTRITDDQLRVLRQYFDINNSPSEEQIKEFADKSGLPQKVIKHWFRNTLFKERQ [M32F]", "lower segment"),
    ("RPRTRITDDQLRVLRQYFDINNSPSLEQIKEMADKSGLPQKVIKHWFRNTLFKERQ [E26L]", "middle segment"),
    ("RPRTRITDDQLRVLRQYFDINNSPSEDQIKEMADKSGLPQKVIKHWFRNTLFKERQ [E27D]", "upper segment"),
    ("RPRTRITDDQLRVLRQYFDINNSPSEEQIKEMADKSGLPQKVIKHWFRNTLFKQRQ [E54Q]", "upper segment"),
    ("RPRTRITDDQLRVLRQYFDINNSPSEEQIKEMADKSGEPQKVIKHWFRNTLFKERQ [L38E]", "lower segment"),
    ("RPRTRITDDQLRVLRQYFDINNSPSEEQIKEMADKSGLPQAVIKHWFRNTLFKERQ [K41A]", "upper segment"),
    ("RPRTRITDDQLRVLRQYFDINNSPSEEQPKEMADKSGLPQKVIKHWFRNTLFKERQ [I29P]", "lower segment"),
    ("RPRTRITDDQLRVLRQYFDINNSPSEEQIKEMADKSGLPQKVIKHWFRNTLFKSRQ [E54S]", "middle segment"),
    ("RPRTRITDDQLRFLRQYFDINNSPSEEQIKEMADKSGLPQKVIKHWFRNTLFKERQ [V13F]", "upper segment"),
    ("RPRTGITDDQLRVLRQYFDINNSPSEEQIKEMADKSGLPQKVIKHWFRNTLFKERQ [R5G]", "upper segment"),
    ("RPRTRITDDQLRVLRQYFDINNSPSEEQIKEMADKSGLPQKVIKHWARNTLFKERQ [F47A]", "lower segment"),
    ("RPRTRITDDQLRVLRQYFDINNSPSEEQIKEMADKSGRPQKVIKHWFRNTLFKERQ [L38R]", "lower segment"),
]
